Target: T1, Biotinylated Human NKp46/NCR/CD335 Protein, Fc, Avitag (NC1-H82F9) (human, UniProt O76036 22-255, biotinylated (Avitag))
T1 construct: Bought from ACROBiosystems, catalog NC1-H82F9; not shown: Fc and Avitag of the purchased protein
T1 sequence (O76036 22-255): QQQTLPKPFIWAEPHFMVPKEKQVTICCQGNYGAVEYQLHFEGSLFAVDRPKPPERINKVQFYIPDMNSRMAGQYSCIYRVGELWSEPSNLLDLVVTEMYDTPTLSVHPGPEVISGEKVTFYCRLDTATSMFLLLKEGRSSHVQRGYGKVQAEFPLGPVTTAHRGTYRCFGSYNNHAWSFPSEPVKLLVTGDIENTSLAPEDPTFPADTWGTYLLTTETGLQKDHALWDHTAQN
Experiment: BLI (Octet RED96), target on sensor, monobody in five 2-fold dilutions

>  <binder>
Mb-NKp46-BC-3 (designed binder, Monobody on human fibronectin type III domain scaffold, BC-FG library; also called NKp46 BC-FG No. 3; not shown: N-terminal residues of the expression construct (X7n7; the library has MPNR), linker, Sortase A recognition site and His tag) LEVVEASPTSIQISWDATYWDWGFRVRYYRITYGETGGNSPVQEFTVPGSKSTATISGLKPGVDYTITVYAVTWSWARRTHISWFPISINYRTEIDKPSQ

>  <qualifier_sign>
<

>  <Kd, nM>
0.01

$$$$
>  <binder>
Mb-NKp46-CD-1 (designed binder, Monobody on human fibronectin type III domain scaffold, CD-FG library; also called NKp46 CD-FG No. 1; not shown: N-terminal residues of the expression construct (X7n7; the library has MPNR), linker, Sortase A recognition site and His tag) LEVVEASPTSIQISWDAPAVTVRYYDIYYGETGPGYYMWQRGVINVQAFTVPGSKSTATISGLKPGVDYTITVYAVTGQERAYGHPEHFPISINYRTEIDKPSQ

>  <qualifier_sign>
=

>  <Kd, nM>
0.14

$$$$
>  <binder>
Mb-NKp46-BC-2 (designed binder, Monobody on human fibronectin type III domain scaffold, BC-FG library; also called NKp46 BC-FG No. 2; not shown: N-terminal residues of the expression construct (X7n7; the library has MPNR), linker, Sortase A recognition site and His tag) LEVVEASPTSIQISWDAWTWLGYEYYWVRYYRITYGETGGNSPVQEFTVPGSKSTATISGLKPGVDYTITVYAVTWDSKPGAIGIPISINYRTEIDKPSQ

>  <qualifier_sign>
=

>  <Kd, nM>
1.2

$$$$
>  <binder>
Mb-NKp46-CD-3 (designed binder, Monobody on human fibronectin type III domain scaffold, CD-FG library; also called NKp46 CD-FG No. 3; not shown: N-terminal residues of the expression construct (X7n7; the library has MPNR), linker, Sortase A recognition site and His tag) LEVVEASPTSIQISWDAPAVTVRYYVISYGETGRYKYHRRINVQGFTVPGSKSTATISGLKPGVDYTITVYAVTGTQWYVFNEAGDVAGYPISINYRTEIDKPSQ

>  <qualifier_sign>
=

>  <Kd, nM>
0.98

$$$$

The measured values listed here are drawn from patent US20260071182A1.
